These measurements were taken from patent US11549123B2.

TGT: Zea mays EPSPS variant V-G at positions 103-107 (Zea mays, UniProt O24566, P106G/T102V)
Sequence (O24566 entry or part of it T102V/P106G): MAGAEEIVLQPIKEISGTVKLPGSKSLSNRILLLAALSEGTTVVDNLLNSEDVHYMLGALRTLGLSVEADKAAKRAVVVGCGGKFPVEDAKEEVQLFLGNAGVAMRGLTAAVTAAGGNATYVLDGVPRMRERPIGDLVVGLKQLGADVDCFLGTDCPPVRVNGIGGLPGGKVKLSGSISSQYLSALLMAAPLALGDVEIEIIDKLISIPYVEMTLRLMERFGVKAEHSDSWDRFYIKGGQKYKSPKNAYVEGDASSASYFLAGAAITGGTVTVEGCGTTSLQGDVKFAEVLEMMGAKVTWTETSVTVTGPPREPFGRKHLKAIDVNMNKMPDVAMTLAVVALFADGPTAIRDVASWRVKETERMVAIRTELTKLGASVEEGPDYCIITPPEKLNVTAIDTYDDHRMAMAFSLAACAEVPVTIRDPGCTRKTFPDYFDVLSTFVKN
PROTOCOL_SUMMARY: EPSPS substrate saturation kinetics, maize variant 103V 107G
Description: EPSPS activity was determined by quantifying the phosphate generated from the EPSPS reaction. […] The absorbance change that occurs was monitored at 360 nm, where the extinction is 11,200 M^−1 cm^−1, with a Spectramax plate reader (Molecular Devices). […] Reactions were monitored with a Spectramax plate reader. […] The parameter kcat/KM×KI is used to quantify both catalytic efficiency and insensitivity and thus the overall fitness of the enzyme. […]
READOUT_KIND: Ki (µM)

> print(dat)
                                   compound  readout.kind  readout.number
1  O=C(O)CNCP(=O)(O)O [glyphosate, N-phosphonomethylglycine]            Ki             480
